Test system: A549
Experiment: Cytotoxicity against human A549 cells assessed as reduction in cell viability incubated for 48 hrs by MTT assay
Format: cell-based
Details: a549, 48 h
quantity.kind: CC20
Remember to follow the number with its unit.

See these solved cases before continuing.
compound	target.desc	CC20
C#CC1(NC(=O)CCCCCCCCCC(=O)OC[C@]23CC[C@@H](C(=C)C)[C@@H]2[C@H]2CCC4[C@@]5(C)CC[C@H](O)C(C)(C)[C@@H]5CC[C@@]4(C)[C@]2(C)CC3)CCCCC1 (single isomer, unassigned)	A549	102.46 µM
C=C(C)[C@@H]1CCC2(COC(=O)CCCCCCCCCC(=O)N3CCSCC3)CC[C@]3(C)[C@H](CC[C@@H]4[C@@]5(C)CC[C@H](O)C(C)(C)[C@@H]5CC[C@]43C)[C@@H]12 (single isomer, unassigned)	A549	114.81 µM

Give the measured CC20 of `C#CC1(NC(=O)/C(C)=C/C(=O)OC[C@]23CC[C@@H](C(=C)C)[C@@H]2[C@H]2CC[C@@H]4[C@@]5(C)CC[C@H](O)C(C)(C)[C@@H]5CC[C@@]4(C)[C@]2(C)CC3)CCCCC1` . 54.47 µM

* * *

Tested on: Vesicular stomatitis virus
Assay: Antiviral activity against Vesicular stomatitis virus Indiana infected in A549 cells assessed as reduction in virus titer preincubated for 24 hrs followed by viral infection and measured after 72 hrs by microscopic analysis
Format: functional, organism-based
Active and inactive are the calls of the source. The calls are words filed in the database; no cut-off is given here.

compound	Activity
C#CC1(NC(=O)CCCCCCCCCC(=O)OC[C@]23CC[C@@H](C(=C)C)[C@@H]2[C@H]2CCC4[C@@]5(C)CC[C@H](O)C(C)(C)[C@@H]5CC[C@@]4(C)[C@]2(C)CC3)CCCCC1 (single isomer, unassigned)	inactive
C#CC1(NC(=O)c2ccccc2C(=O)OC[C@]23CC[C@@H](C(=C)C)[C@@H]2[C@H]2CC[C@@H]4[C@@]5(C)CC[C@H](O)C(C)(C)[C@@H]5CC[C@@]4(C)[C@]2(C)CC3)CCCCC1	inactive

* * *

Test: Selectivity index, ratio of CC50 for cytotoxicity against human A549 cells to EC50 for antiviral activity against Enterovirus E LCR-4 infected in A549 cells assessed as reduction in virus titer treated 1 hr post viral infection followed by replacement with fresh medium with compounds and measured after 72 hrs by MTT assay
Format: toxicity, cell-based
Conditions: read-out: Selectivity Index
Assign selectivity ratio at 72 h to each entry below.
Answers are plain numbers.

mol	recorded.number
NC(=O)c1ncn([C@@H]2O[C@H](CO)[C@@H](O)[C@H]2O)n1	74.3
C=C(C)[C@@H]1CC[C@]2(COC(=O)/C=C(\C)C(=O)N3CCOCC3)CC[C@]3(C)[C@H](CC[C@@H]4[C@@]5(C)CC[C@H](O)C(C)(C)[C@@H]5CC[C@]43C)[C@@H]12	3

Give the measured selectivity ratio at 72 h of `C=C(C)[C@@H]1CC[C@]2(COC(=O)CCCCCCCCCC(=O)O)CC[C@]3(C)[C@H](CC[C@@H]4[C@@]5(C)CC[C@H](O)C(C)(C)[C@@H]5CC[C@]43C)[C@@H]12` . 2.9

* * *

Tested on: A549
Test: Cytotoxicity against human A549 cells assessed as reduction in cell viability incubated for 48 hrs by MTT assay
Format: cell-based
Conditions: a549, 48 h
quantity.kind: CC20 (µM)
Numbers only, in µM.

Below are some molecules; for each one, tell me its CC20.
1. C=C(C)[C@@H]1CC[C@]2(COC(=O)CCC(=O)N3CCOCC3)CC[C@]3(C)[C@H](CC[C@@H]4[C@@]5(C)CC[C@H](O)C(C)(C)[C@@H]5CC[C@]43C)[C@@H]12
2. C=C(C)[C@@H]1CC[C@]2(COC(=O)c3cccc(C(=O)N4CCOCC4)c3)CC[C@]3(C)[C@H](CC[C@@H]4[C@@]5(C)CC[C@H](O)C(C)(C)[C@@H]5CC[C@]43C)[C@@H]12
3. C=C(C)[C@@H]1CC[C@]2(COC(=O)c3cccc(C(=O)N4CCSCC4)c3)CC[C@]3(C)[C@H](CC[C@@H]4[C@@]5(C)CC[C@H](O)C(C)(C)[C@@H]5CC[C@]43C)C12 (single isomer, unassigned)
4. C=C(C)[C@@H]1CC[C@]2(COC(=O)CCCCCCCCCC(=O)O)CC[C@]3(C)[C@H](CC[C@@H]4[C@@]5(C)CC[C@H](O)C(C)(C)[C@@H]5CC[C@]43C)[C@@H]12
5. C=C(C)[C@@H]1CC[C@]2(COC(=O)CCCCCCCCCC(=O)N3CCOCC3)CC[C@]3(C)[C@H](CC[C@@H]4[C@@]5(C)CC[C@H](O)C(C)(C)[C@@H]5CC[C@]43C)[C@@H]12

1. 9.63
2. 71.74
3. 117.79
4. 5.09
5. 34.77

Below are some molecules; for each one, tell me its CC20.
1. C=C(C)[C@@H]1CC[C@]2(COC(=O)CCC(=O)N3CCCCC3)CC[C@]3(C)[C@H](CC[C@@H]4[C@@]5(C)CCC(O)C(C)(C)[C@@H]5CC[C@]43C)[C@@H]12 (single isomer, unassigned)
2. C=C(C)[C@@H]1CC[C@]2(COC(=O)CCCC(=O)N3CCCCC3)CC[C@]3(C)[C@H](CC[C@@H]4[C@@]5(C)CC[C@H](O)C(C)(C)[C@@H]5CC[C@]43C)[C@@H]12
3. C#CCNC(=O)c1ccccc1C(=O)OC[C@]12CC[C@@H](C(=C)C)[C@@H]1[C@H]1CC[C@@H]3[C@@]4(C)CC[C@H](O)C(C)(C)[C@@H]4CC[C@@]3(C)[C@]1(C)CC2
4. C#CCNC(=O)/C(C)=C/C(=O)OC[C@]12CC[C@@H](C(=C)C)[C@@H]1[C@H]1CC[C@@H]3[C@@]4(C)CC[C@H](O)C(C)(C)[C@@H]4CC[C@@]3(C)[C@]1(C)CC2
5. C#CC1(NC(=O)CCCC(=O)OC[C@]23CCC(C(=C)C)[C@@H]2[C@H]2CC[C@@H]4[C@@]5(C)CC[C@H](O)C(C)(C)[C@@H]5CC[C@@]4(C)[C@]2(C)CC3)CCCCC1 (single isomer, unassigned)

1: 69.83; 2: 17.12; 3: 39.81; 4: 10.56; 5: 108.7

Below are some molecules; for each one, tell me its CC20.
1. C=C(C)[C@@H]1CC[C@]2(COC(=O)/C=C/C(=O)O)CC[C@]3(C)[C@H](CC[C@@H]4[C@@]5(C)CC[C@H](O)C(C)(C)[C@@H]5CC[C@]43C)[C@@H]12
2. C=C(C)[C@@H]1CC[C@]2(COC(=O)c3ccccc3C(=O)N3CCSCC3)CC[C@]3(C)[C@H](CC[C@@H]4[C@@]5(C)CC[C@H](O)C(C)(C)[C@@H]5CC[C@]43C)[C@@H]12
3. C=C(C)[C@@H]1CC[C@]2(COC(=O)c3cccc(C(=O)N4CCCCC4)c3)CC[C@]3(C)[C@H](CC[C@@H]4[C@@]5(C)CC[C@H](O)C(C)(C)[C@@H]5CC[C@]43C)[C@@H]12

1: 11.55; 2: 58.9; 3: 130.89

Below are some molecules; for each one, tell me its CC20.
1. C=C(C)[C@@H]1CC[C@]2(COC(=O)CCC(=O)N3CCSCC3)CC[C@]3(C)[C@H](CC[C@@H]4[C@@]5(C)CC[C@H](O)C(C)(C)[C@@H]5CC[C@]43C)[C@@H]12
2. C=C(C)[C@@H]1CC[C@]2(COC(=O)c3cccc(C(=O)O)c3)CC[C@]3(C)[C@H](CC[C@@H]4[C@@]5(C)CC[C@H](O)C(C)(C)[C@@H]5CC[C@]43C)[C@@H]12
3. C#CC1(NC(=O)c2ccccc2C(=O)OC[C@]23CC[C@@H](C(=C)C)[C@@H]2[C@H]2CC[C@@H]4[C@@]5(C)CC[C@H](O)C(C)(C)[C@@H]5CC[C@@]4(C)[C@]2(C)CC3)CCCCC1
4. C=C(C)[C@@H]1CC[C@]2(COC(=O)/C=C(\C)C(=O)N3CCSCC3)CC[C@]3(C)[C@H](CC[C@@H]4[C@@]5(C)CC[C@H](O)C(C)(C)[C@@H]5CC[C@]43C)[C@@H]12
5. Nc1ccn(C[C@@H](CO)OCP(=O)(O)O)c(=O)n1.O.O [CIDOFOVIR]
6. C=C(C)[C@@H]1CC[C@]2(COC(=O)/C=C(\C)C(=O)N3CCOCC3)CC[C@]3(C)[C@H](CC[C@@H]4[C@@]5(C)CC[C@H](O)C(C)(C)[C@@H]5CC[C@]43C)[C@@H]12

1: 62.42; 2: 21.15; 3: 109.82; 4: 61.5; 5: 358.42; 6: 37.82
